Where do the numbers come from? From ChEMBL document CHEMBL4477183.

Listing of recorded log10 of MIC by entry.
Test system: Staphylococcus aureus
Experiment Description: Antimicrobial activity against Staphylococcus aureus clinical isolates from Liberec regional hospital assessed as reduction in bacterial growth after 20 hrs by broth microdilution assay
Non-standard residues stand in square brackets, D forms with d. Residues, ends and D or L forms follow the SMILES beside them.
Readout Label: log10 of MIC (log10 of the value in µM)

Compound	Reading
CC1(C)S[C@@H]2[C@H](NC(=O)[C@H](N)c3ccc(O)cc3)C(=O)N2[C@H]1C(=O)O	1.54
CC[C@@H](C)[C@@H](NC(=O)CN)C(=O)N[C@H](CCSC)C(=O)N[C@H](CO)C(=O)N[C@H](CO)C(=O)N[C@H](CC(C)C)C(=O)N[C@H](CCSC)C(=O)N[C@H](CCCCN)C(=O)N[C@H](CCCCN)C(=O)N[C@H](CC(C)C)C(=O)N[C@H](CCCCN)C(=O)N[C@H](CCCCN)C(=O)N[C@@H](C(=O)N[C@@H](C(=O)N[C@H](C)C(=O)N[C@H](CCCCN)C(N)=O)[C@H](C)CC)[C@H](C)CC (H-G[dI][dM][dS][dS][dL][dM][dK][dK][dL][dK][dK][dI][dI][dA][dK]-NH2)	0.85
CC[C@@H](C)[C@@H](NC(=O)CN)C(=O)N[C@H](CC(C)C)C(=O)N[C@H](CO)C(=O)N[C@H](CO)C(=O)N[C@H](CC(C)C)C(=O)N[C@H](Cc1c[nH]c2ccccc12)C(=O)N[C@H](CCCCN)C(=O)N[C@H](CCCCN)C(=O)N[C@H](CC(C)C)C(=O)N[C@H](CCCCN)C(=O)N[C@H](CCCCN)C(=O)N[C@@H](C(=O)N[C@@H](C(=O)N[C@H](C)C(=O)N[C@H](CCCCN)C(N)=O)[C@H](C)CC)[C@H](C)CC (H-G[dI][dL][dS][dS][dL][dW][dK][dK][dL][dK][dK][dI][dI][dA][dK]-NH2)	0.46
CN(C)[C@@H]1C(O)=C(C(N)=O)C(=O)[C@@]2(O)C(O)=C3C(=O)c4c(O)cccc4[C@@](C)(O)[C@H]3C[C@@H]12	0.04
CC[C@@H](C)[C@@H](NC(=O)CN)C(=O)N[C@H](CC(C)C)C(=O)N[C@H](CO)C(=O)N[C@H](CO)C(=O)N[C@H](CC(C)C)C(=O)N[C@H](CC(C)C)C(=O)N[C@H](CCCCN)C(=O)N[C@H](CCCCN)C(=O)N[C@H](CC(C)C)C(=O)N[C@H](CCCCN)C(=O)N[C@H](CCCCN)C(=O)N[C@@H](C(=O)N[C@@H](C(=O)N[C@H](C)C(=O)N[C@H](CCCCN)C(N)=O)[C@H](C)CC)[C@H](C)CC (H-G[dI][dL][dS][dS][dL][dL][dK][dK][dL][dK][dK][dI][dI][dA][dK]-NH2)	0.41
